meta.source: patent US20240238424A1

target: GSPT1 (Homo sapiens, UniProt P15170+Q96SW2); construct: host or cells: HEK293 LgBiT cell line; assay: GSPT1 HiBit degradation assay; format: cell-based; conditions: Table 3; HEK293 LgBiT cells expressing GSPT1_HiBiT, luminescence after 6 hours
Sequence (P15170 whole entry): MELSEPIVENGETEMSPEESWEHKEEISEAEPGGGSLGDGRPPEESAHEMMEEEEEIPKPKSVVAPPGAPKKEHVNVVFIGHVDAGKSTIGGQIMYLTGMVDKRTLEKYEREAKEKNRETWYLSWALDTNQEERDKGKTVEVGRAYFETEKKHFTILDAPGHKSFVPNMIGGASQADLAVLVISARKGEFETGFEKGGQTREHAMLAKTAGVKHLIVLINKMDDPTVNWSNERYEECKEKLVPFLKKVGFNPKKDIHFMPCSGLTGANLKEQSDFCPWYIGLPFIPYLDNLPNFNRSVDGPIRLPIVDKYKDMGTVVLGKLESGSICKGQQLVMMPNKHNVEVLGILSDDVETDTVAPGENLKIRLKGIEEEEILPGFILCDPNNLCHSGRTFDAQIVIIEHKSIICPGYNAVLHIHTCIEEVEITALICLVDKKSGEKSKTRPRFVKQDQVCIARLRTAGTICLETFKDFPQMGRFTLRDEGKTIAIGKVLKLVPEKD
Sequence (Q96SW2 whole entry): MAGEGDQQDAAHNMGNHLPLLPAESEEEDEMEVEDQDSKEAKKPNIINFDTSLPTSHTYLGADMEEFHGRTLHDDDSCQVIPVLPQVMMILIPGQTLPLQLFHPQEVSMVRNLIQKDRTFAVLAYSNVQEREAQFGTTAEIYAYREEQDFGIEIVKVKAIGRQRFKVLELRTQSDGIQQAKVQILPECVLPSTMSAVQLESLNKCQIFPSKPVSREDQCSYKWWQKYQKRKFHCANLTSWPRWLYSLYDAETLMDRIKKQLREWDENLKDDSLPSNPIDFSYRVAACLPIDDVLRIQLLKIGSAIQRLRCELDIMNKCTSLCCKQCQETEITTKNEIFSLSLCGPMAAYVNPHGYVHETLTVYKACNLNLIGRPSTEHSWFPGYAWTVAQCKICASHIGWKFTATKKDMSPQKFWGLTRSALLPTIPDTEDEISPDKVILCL
Sequence (Q16531 whole entry partner): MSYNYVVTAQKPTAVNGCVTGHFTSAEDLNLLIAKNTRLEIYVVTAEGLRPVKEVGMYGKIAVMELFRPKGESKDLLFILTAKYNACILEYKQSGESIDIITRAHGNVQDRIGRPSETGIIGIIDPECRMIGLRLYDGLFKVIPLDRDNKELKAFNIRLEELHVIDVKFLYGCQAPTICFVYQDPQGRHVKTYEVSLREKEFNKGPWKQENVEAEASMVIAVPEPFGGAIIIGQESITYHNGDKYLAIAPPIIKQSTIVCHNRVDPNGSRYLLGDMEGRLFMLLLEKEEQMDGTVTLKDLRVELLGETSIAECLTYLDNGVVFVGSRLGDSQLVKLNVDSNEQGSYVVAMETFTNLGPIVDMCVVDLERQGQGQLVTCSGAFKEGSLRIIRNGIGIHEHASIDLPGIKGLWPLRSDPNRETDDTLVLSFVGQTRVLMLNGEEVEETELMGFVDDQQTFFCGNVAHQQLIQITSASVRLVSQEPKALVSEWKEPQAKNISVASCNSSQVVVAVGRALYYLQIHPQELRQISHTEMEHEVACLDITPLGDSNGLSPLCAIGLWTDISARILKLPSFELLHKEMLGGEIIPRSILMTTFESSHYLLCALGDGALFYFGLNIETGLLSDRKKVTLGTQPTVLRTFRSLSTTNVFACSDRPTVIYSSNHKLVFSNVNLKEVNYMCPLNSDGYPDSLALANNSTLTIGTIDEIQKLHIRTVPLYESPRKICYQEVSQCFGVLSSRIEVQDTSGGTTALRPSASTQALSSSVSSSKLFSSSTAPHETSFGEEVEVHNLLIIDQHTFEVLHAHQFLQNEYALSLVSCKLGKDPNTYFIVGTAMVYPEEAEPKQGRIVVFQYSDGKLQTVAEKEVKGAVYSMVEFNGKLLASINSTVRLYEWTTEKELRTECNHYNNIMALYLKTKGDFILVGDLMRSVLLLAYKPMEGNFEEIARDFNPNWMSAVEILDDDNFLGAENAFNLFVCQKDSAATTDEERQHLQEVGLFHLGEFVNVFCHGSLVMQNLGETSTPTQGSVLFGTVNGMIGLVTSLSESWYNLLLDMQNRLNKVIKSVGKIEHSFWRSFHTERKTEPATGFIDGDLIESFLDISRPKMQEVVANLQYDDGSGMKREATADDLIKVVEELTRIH
Measured DC50 accompanies every entry in the list below.
readout label: DC50

[[record]]
compound = "C=CC(=O)N1CCN(c2nc(NCCCCCCCCNc3cccc4c3CN(C3CCC(=O)NC3=O)C4=O)nc3c(F)c(-c4cc(O)cc5ccccc45)c(Cl)cc23)CC1 (stereo not shown)"
value_reported = "> 10 µM"

[[record]]
compound = "C=CC(=O)N1CCN(c2nc(NCCOCCOCCOCCOCCOCCOCCOCCOCCOc3cc(Cl)cc(NC(=O)NCc4ccc5c(c4)CN(C4CCC(=O)NC4=O)C5=O)c3)nc3c(F)c(-c4cc(O)cc5ccccc45)c(Cl)cc23)CC1 (stereo not shown)"
value_reported = "> 10 µM"

[[record]]
compound = "C=C(F)C(=O)N1CCN(c2nc(OC[C@@H]3CCCN3CCOCCOCCOCCOCCOCCOCCOCCOCCOc3cc(Cl)cc(NC(=O)NCc4ccc5c(c4)CN(C4CCC(=O)NC4=O)C5=O)c3)nc3c2CCN(c2cccc4cccc(Cl)c24)C3)C[C@@H]1CC#N (stereo partly shown)"
value_reported = "> 10 µM"

[[record]]
compound = "C=C(F)C(=O)N1CCN(c2nc(OC[C@@H]3CCCN3CCOCCOCCOCCOCCOCCOCCCCCCCCc3cc(Cl)cc(NC(=O)NCc4ccc5c(c4)CN(C4CCC(=O)NC4=O)C5=O)c3)nc3c2CCN(c2cccc4cccc(Cl)c24)C3)C[C@@H]1CC#N (stereo partly shown)"
value_reported = "< 0.25 µM"

